studyTarget: human D3 receptor (Homo sapiens)
Sequence (P35462 whole entry): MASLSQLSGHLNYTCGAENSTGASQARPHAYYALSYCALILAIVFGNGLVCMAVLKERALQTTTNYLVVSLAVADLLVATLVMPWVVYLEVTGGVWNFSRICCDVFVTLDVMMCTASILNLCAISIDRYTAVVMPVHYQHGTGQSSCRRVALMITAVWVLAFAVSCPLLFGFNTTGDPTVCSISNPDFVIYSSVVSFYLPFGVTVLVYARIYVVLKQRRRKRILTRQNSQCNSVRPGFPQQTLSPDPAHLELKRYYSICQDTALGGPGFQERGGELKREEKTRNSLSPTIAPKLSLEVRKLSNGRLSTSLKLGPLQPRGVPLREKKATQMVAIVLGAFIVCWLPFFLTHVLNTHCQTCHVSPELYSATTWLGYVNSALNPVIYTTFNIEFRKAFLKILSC
endpointLabel: pKi
Give only the number. pKi is defined as minus log10 of concentration in molar units.

Lab note: molecule Cc1ccc2c(c1)c1c(n2CCc2ccccc2)CCN(C)C1 [1.1.2(1-2) ·2HCl] tested on human D3 receptor (Homo sapiens); recorded pKi was 6.06

---

studyTarget: human D2S receptor (Homo sapiens)
Sequence (P14416 1-414 isoform P14416-2): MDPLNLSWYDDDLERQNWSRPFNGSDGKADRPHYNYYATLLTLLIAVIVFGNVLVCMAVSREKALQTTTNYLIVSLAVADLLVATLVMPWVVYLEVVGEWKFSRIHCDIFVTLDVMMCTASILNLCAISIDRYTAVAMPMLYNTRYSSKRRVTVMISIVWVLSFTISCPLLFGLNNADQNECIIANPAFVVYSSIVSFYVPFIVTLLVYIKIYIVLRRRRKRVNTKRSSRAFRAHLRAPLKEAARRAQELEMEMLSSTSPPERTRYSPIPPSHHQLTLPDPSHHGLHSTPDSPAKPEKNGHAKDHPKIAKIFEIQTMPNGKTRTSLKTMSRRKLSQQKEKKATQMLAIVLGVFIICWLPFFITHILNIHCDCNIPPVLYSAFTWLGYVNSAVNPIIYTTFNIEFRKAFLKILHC
endpointLabel: pKi
By convention, pKi is the negative base-10 log of a molar concentration.

Considering Cc1ccc2c(c1)c1c(n2CCc2ccc(C)nc2)CCN(C)C1 [1.1.2(4-2)·2HCl] , its pKi with human D2S receptor (Homo sapiens) was recorded as 6.20

---

studyTarget: recombinant human 5-HT2B receptor (Homo sapiens)
Sequence (P41595 whole entry): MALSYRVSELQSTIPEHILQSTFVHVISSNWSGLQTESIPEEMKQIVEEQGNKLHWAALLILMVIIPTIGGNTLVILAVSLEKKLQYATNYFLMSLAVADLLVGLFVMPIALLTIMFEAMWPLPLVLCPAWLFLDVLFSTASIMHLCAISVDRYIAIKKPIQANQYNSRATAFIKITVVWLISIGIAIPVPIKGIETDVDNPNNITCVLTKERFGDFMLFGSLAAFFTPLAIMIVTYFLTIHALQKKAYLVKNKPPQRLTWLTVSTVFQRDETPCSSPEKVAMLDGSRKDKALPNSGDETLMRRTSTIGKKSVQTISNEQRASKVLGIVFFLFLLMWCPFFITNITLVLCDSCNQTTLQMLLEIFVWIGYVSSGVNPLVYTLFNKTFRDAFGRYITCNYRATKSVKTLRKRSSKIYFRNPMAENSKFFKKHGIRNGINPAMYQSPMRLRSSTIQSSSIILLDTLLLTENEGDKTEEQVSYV
testSummary: Radioligand binding to serotonin receptor 5-HT2B ([3H] Lysergic acid diethylamide, CHO-K1 membranes)
testConditions: 5-HT2B
endpointLabel: IC50 (nM)
Numbers only; they are read as nM.

Lookup result for `CN1CCc2c(c3ccccc3n2Cc2ccccc2)C1` ; measured IC50: 31.4

Attribution: patent EP2236511A2
